# System: Xenopus embryos
# Test settings: embryonic stage; * = causing bulging eyes; # = bilateral, causing narrow-set eyes
Type of edema Periocular reference

Smiles repr	Measured value
COC(=O)C1=C(C)NC(C)=C(C(=O)OC)C1c1ccccc1[N+](=O)[O-]	41/42

Per the record, CN(C)S(=O)(=O)c1ccc2c(c1)C(=Cc1cc3c([nH]1)CCCC3)C(=O)N2 has Type of edema Periocular of 41/42*

* * *

activity at 10 µM reference
# System: HUVEC
# Protocol notes: HUVEC cell proliferation assay
# Assay type: cell-based, human
# Test settings: Homo sapiens, HUVEC, 48 h, 10 μM in 0.1% DMSO, 48 hours; read-out: HUVEC proliferation
Structures can show the parent of a compound that is named as a salt.

The following molecules have reported results that may help.
Molecule	Test target	Measured value
O=Nc1c(-c2c(O)[nH]c3ccccc23)[nH]c2ccccc12	HUVEC	50 to 85%
CCn1c(=O)c2[nH]c(-c3ccccc3)nc2n(CC)c1=O	HUVEC	85 to 115%
CC1=C(/C=C/C(C)=C/C=C/C(C)=C/C(=O)O)C(C)(C)CCC1	HUVEC	115 to 150%

Kindly consider the entry below.
Per the record, COC(=O)C1=C(C)NC(C)=C(C(=O)OCCN(C)Cc2ccccc2)C1c1cccc([N+](=O)[O-])c1 (stereo not shown) [Nicardipine hydrochloride] has activity at 10 µM of 85 to 115%
